Assay: Selectivity index, ratio of IC50 for human HaCaT cells for human PC3 cells
Assay type: toxicity
Details: HaCaT cells versus PC3 cells, read-out: Ratio IC50
quantity: selectivity ratio
Answers are plain numbers.

- givenSmiles: "COc1ccc(/C=C2\\NC(=O)N(CCCCN3CCN(c4cccc(Cl)c4Cl)CC3)C2=O)cc1OC"
  selectivity ratio: 1.31

Next, consider the following molecule.
The reported selectivity ratio of the molecule COc1ccc(/C=C2\NC(=O)N(CCCCN3CCN(c4ccccc4OC)CC3)C2=O)cc1OC1CCCC1 was 0.59

----------
For each entry below, report its pKi value.
Biological target: 5-hydroxytryptamine receptor 1A (Homo sapiens, UniProt P08908)
Sequence (P08908 whole entry): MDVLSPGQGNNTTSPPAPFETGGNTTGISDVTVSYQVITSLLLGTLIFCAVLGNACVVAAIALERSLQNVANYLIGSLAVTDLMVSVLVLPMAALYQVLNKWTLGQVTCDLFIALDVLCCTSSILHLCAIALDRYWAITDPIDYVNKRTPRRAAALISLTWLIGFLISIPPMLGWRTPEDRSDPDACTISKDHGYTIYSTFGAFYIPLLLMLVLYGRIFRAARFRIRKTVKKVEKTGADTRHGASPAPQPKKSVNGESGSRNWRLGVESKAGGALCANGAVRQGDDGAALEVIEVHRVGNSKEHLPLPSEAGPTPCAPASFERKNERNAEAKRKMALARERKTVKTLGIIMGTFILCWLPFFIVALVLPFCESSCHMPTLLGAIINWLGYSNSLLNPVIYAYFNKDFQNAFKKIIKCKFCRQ
Assay: Displacement of [3H]-8-OH-DPAT from human recombinant 5-HT1A receptor expressed in HEK293 cells incubated for 60 mins by microbeta2 scintillation counter
Answers are plain numbers, as −log10 of the molar value.

Previously resolved entries follow.
- givenSmiles: "COc1ccc(/C=C2\\NC(=O)N(CCCN3CCN(c4ncccn4)CC3)C2=O)cc1OC"
  quantity: "pKi"
  obsValue: 7.92
- givenSmiles: "COc1ccc(/C=C2\\NC(=O)N(CCCCN3CCN(c4cccc(Cl)c4Cl)CC3)C2=O)cc1OC"
  quantity: "pKi"
  obsValue: 9.70
- givenSmiles: "COc1ccc(/C=C2\\NC(=O)N(CCCN3CCN(c4cccc(Cl)c4Cl)CC3)C2=O)cc1OC"
  quantity: "pKi"
  obsValue: 7.28
- givenSmiles: "COc1ccc(/C=C2\\NC(=O)N(CCCN3CCN(c4ccccc4OC)CC3)C2=O)cc1OC1CCCC1"
  quantity: "pKi"
  obsValue: 7.43
- givenSmiles: "COc1ccc(/C=C2\\NC(=O)N(CCCCN3CCN(c4ncccn4)CC3)C2=O)cc1OC1CCCC1"
  quantity: "pKi"
  obsValue: 7.19

Please state pKi for every molecule in the list that follows.
1. COc1ccc(/C=C2\NC(=O)N(CCCN3CCN(c4ccccc4OC)CC3)C2=O)cc1OC
2. COc1ccc(/C=C2\NC(=O)N(CCCCN3CCN(c4cccc(Cl)c4Cl)CC3)C2=O)cc1OC1CCCC1
3. COc1ccc(/C=C2\NC(=O)N(CCCCN3CCN(c4ccccc4OC)CC3)C2=O)cc1OC

[7.89, 6.88, 8.15]
